Target: GPIIb/IIIa (Homo sapiens, UniProt P05106+P08514)
Construct: Purification of GPIIb/IIIa from HEL cells; endogenous in cells; host or cells: HEL cells (HEL 92.1.7, ATCC TIB180); endogenous complex solubilized with Triton X-100 and purified in house
Sequence (P08514 32-887 limits assumed): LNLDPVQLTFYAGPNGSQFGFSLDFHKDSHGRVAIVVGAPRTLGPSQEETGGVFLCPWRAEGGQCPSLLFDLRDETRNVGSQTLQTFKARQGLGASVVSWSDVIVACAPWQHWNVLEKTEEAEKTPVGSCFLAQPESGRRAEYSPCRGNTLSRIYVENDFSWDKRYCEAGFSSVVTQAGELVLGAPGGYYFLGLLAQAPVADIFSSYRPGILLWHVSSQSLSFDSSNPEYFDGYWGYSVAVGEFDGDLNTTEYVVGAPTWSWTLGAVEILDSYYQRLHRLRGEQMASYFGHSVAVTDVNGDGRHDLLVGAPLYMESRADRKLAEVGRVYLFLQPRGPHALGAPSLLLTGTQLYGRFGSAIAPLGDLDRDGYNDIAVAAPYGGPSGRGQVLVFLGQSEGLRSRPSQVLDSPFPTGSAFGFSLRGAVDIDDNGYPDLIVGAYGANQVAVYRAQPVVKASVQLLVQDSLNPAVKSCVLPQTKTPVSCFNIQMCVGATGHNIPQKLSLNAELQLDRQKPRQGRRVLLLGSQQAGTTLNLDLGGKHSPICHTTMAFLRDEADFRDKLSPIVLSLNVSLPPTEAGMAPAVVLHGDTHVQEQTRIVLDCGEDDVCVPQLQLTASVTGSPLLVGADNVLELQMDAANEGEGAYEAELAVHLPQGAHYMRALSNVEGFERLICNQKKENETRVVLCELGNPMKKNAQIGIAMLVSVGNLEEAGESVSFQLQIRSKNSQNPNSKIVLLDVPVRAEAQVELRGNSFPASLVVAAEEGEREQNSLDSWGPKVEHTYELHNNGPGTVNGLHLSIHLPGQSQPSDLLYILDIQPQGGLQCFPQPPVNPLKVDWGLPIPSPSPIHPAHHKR
Sequence (P08514 891-1039 limits assumed): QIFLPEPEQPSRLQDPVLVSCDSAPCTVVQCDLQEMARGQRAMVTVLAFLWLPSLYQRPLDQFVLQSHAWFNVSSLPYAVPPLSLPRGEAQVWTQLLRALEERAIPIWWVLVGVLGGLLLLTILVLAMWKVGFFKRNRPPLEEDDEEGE
Sequence (P05106 27-788): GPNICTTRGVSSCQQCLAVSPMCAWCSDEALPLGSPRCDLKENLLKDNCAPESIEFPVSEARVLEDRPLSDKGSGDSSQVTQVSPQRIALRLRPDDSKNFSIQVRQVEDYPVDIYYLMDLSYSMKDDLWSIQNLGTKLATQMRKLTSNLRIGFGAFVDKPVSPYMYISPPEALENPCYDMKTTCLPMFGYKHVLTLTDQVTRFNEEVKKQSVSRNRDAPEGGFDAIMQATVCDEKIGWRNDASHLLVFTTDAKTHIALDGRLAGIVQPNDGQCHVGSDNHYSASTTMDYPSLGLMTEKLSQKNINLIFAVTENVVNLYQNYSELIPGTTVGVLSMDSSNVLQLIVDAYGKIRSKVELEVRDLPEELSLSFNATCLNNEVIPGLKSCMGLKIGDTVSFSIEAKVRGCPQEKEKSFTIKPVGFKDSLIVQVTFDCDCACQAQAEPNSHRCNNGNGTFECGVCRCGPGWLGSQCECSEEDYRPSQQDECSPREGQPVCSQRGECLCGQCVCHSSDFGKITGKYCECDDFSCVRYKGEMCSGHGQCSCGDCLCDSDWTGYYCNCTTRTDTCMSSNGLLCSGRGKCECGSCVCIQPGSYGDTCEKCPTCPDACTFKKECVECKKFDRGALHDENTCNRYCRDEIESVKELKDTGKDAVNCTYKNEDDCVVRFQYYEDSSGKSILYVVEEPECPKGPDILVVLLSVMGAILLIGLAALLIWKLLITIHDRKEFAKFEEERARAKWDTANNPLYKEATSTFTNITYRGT
Test: Inhibitory activity against binding of GPIIb/IIIa and fibrinogen
Details: Table 2; 10^-6 M; read-out: GPIIb/IIIa Fibrinogen Binding Inhibitory Activity
Excerpt: Test Example 1: Inhibitory activity against binding of GPIIb/IIIa and fibrinogen (1) Cultivation of human erythroleukemia-derived cell line (hereinafter referred to as HEL cells) HEL cells (HEl92.1.7; ATCC No. TIB180) were purchased from ATCC (Rockville, Md., U.S.A.). […]
Where a name gives a salt, the structure may show the parent alone.
MEASUREMENT_NAME: inhibition at 1 µM (%)

1. O=C(O)c1cn(Cc2nccs2)c2c(F)c(N3CCN(c4ccncc4)CC3)c(F)cc2c1=O | 100

(P) O=C(O)c1cn(C2CC2)c2cc(N3CCN4CCC[C@H]4C3)c(F)cc2c1=O
(Q) O=C(O)c1cn(Cc2cscn2)c2c(F)c(N3CCNCC3)c(F)cc2c1=O [Compound 72, hydrochloride]
Prompt line: Which has the higher inhibition at 1 µM, P or Q ? Identify your selection by its label.
Response line: Q
